Data origin, for the record: the supplement of paper PMC10567573

B1: NEK8 (parent)
chain: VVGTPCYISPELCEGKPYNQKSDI

# Variants of: B1
# experimental-details: protein stability index of a GFP-peptide fusion (GPS, HEK-293T) (PSI 1-6); higher = more stable;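 further: lentivirally expressed fusions sorted by FACS into six bins by GFP to DsRed ratio, PSI derived from sequencing read proportions per bin multiplied by bin number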
# condition-notes: c terminus: a fixed tail appended
experimental-endpoint: protein stability index
Field format: numeric only.

Past entries and their recorded results:
[[record]]
mut = "Y7L"
experimental_endpoint = "protein stability index"
reported_result = 3.83

[[record]]
mut = "V2S"
experimental_endpoint = "protein stability index"
reported_result = 3.75

[[record]]
mut = "C13V"
experimental_endpoint = "protein stability index"
reported_result = 2.95

[[record]]
mut = "G3C"
experimental_endpoint = "protein stability index"
reported_result = 2.23

[[record]]
mut = "C6F"
experimental_endpoint = "protein stability index"
reported_result = 2.14

[[record]]
mut = "V2N"
experimental_endpoint = "protein stability index"
reported_result = 3.63

[[record]]
mut = "P10C"
experimental_endpoint = "protein stability index"
reported_result = 2.22

[[record]]
mut = "I24D"
experimental_endpoint = "protein stability index"
reported_result = 4.21


As a next step, examine the variant that follows.
Query: # input variant: K21C ; wanted: its protein stability index
Response: 2.51
